Cited source for all entries: the kinase profiling compilation of Christmann-Franck et al. (2016)

Could you please report measured residual activity for the items listed next?
- tested.system: UniProt Q8N5S9
- Sequence (Q8N5S9 whole entry, looked up): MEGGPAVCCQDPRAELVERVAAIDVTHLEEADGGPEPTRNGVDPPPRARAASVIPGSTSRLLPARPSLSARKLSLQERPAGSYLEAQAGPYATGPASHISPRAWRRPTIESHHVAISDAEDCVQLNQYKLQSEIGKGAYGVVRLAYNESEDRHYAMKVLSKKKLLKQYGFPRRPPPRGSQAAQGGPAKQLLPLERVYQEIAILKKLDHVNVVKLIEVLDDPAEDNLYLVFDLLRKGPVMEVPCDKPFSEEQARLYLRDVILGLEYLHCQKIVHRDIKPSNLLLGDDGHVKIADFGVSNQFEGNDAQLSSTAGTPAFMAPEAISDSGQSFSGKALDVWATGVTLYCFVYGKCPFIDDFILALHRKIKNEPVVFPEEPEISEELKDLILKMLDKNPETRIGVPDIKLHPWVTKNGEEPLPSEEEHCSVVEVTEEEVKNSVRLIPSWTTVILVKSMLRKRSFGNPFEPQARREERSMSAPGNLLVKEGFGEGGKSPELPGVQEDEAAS
- experiment.description: radiometric filter-binding kinase assay, Kinase HotSpot
- measurement.context: compound 0.5 µM; ATP 10 µM
Numbers only, in %.

Record excerpt, results attached:
Cn1c2ccccc2c2c3c(c4c5ccccc5n(CCC#N)c4c21)CNC3=O: 19.3
CC(C)(C)c1cc(C=C(C#N)C#N)cc(Br)c1O: 120
N#C/C(=C\c1ccc(O)c(O)c1)C(=O)NCc1ccccc1: 102
Cc1cccc(-c2nc(C(C)(C)C)[nH]c2-c2ccc3c(c2)OCO3)n1: 103
Ic1cccc(CSc2nnc(-c3ccncc3)o2)c1: 124
COc1cc2ncnc(Nc3ccc(Oc4ccccc4)cc3)c2cc1OC: 93.1
COc1ccc(Cl)cc1NC(=O)Nc1cc(C)nc2ccccc12: 113
CCCCc1c(-c2ccc(OC)cc2)[nH]c2nccnc12: 105

Dear colleague, could you please provide residual activity for the compounds listed below?
1. c1ccc2c(-c3ccncc3)c[nH]c2c1
2. CO[C@@H]1[C@H](N(C)C(=O)c2ccccc2)C[C@H]2O[C@]1(C)n1c3ccccc3c3c4c(c5c6ccccc6n2c5c31)C(=O)NC4
3. Cc1nc(-c2ccccc2)c(-c2ccncc2)o1
4. Fc1ccc(-c2nc3n(c2-c2ccncc2)CCS3)cc1
5. COc1ccc2c(c1)c(C1=C(c3c[nH]c4ccccc34)C(=O)NC1=O)cn2CCCN(C)C
6. COc1cc2ncnc(Nc3ccc(OCc4ccccc4)cc3)c2cc1OC

[out]
1: 122; 2: 20.4; 3: 123; 4: 113; 5: 94.8; 6: 126

Value sought for every listed compound: residual activity.
1. O=C1c2ccccc2-c2nc3nnnn3nc21
2. O=C1Nc2ccc(Br)cc2/C1=C\c1cc2c([nH]1)CCCC2
3. COc1ccc2c(c1)/C(=C/c1cnc[nH]1)C(O)=N2
4. O=C1NC(=O)c2c1c1c3ccccc3[nH]c1n1cncc21

[out]
1: 74.9; 2: 69.6; 3: 91.3; 4: 63.5

Quick request: residual activity for each listed item, please.
1. NC(=O)c1cccc(-c2cc(Nc3ccc(OC(F)(F)F)cc3)ncn2)c1
2. CN(C)S(=O)(=O)c1ccc2c(c1)/C(=C/c1cc3c([nH]1)CCCC3)C(=O)N2
3. Cc1cncc2cccc(S(=O)(=O)N3CCCN(C(=O)CN)C[C@H]3C)c12
4. C[C@@H]1CCN(C(=O)CC#N)C[C@@H]1N(C)c1ncnc2[nH]ccc12
5. N#Cc1c[nH]c2c[nH]/c(=N\Cc3cccnc3)cc2/c1=N\c1ccc(F)c(Cl)c1
6. CS(=O)(=O)CCNCc1ccc(-c2ccc3ncnc(Nc4ccc(OCc5cccc(F)c5)c(Cl)c4)c3c2)o1
7. O=C1C(Cl)=C(N2C(=O)CCC2=O)C(=O)c2ccccc21
8. COc1ccc(S(=O)(=O)N(CCO)c2ccccc2CN(C)C/C=C/c2ccc(Cl)cc2)cc1

[out]
1: 103; 2: 65.4; 3: 115; 4: 101; 5: 105; 6: 98.8; 7: 112; 8: 106

Parameter requested: residual activity. Apply to each item below.
1. COc1cc(Nc2c(C#N)cnc3cc(OCCCN4CCN(C)CC4)c(OC)cc23)c(Cl)cc1Cl
2. CN(C)c1ccc(/C=C2\C(=O)Nc3ccccc32)cc1
3. CN(C)CCCn1cc(C2=C(c3c[nH]c4ccccc34)C(=O)NC2=O)c2ccccc21
4. O=C(c1cc2cc(O)ccc2[nH]1)c1cc2cc(O)ccc2[nH]1
5. COc1ccc(C(=O)Nc2sc3c(c2C(N)=O)CCCC3)cc1OC

[out]
1. 84.8
2. 98.6
3. 90.8
4. 63.3
5. 125

====

- tested.system: UniProtKB P49841
- Sequence (P49841 whole entry, looked up): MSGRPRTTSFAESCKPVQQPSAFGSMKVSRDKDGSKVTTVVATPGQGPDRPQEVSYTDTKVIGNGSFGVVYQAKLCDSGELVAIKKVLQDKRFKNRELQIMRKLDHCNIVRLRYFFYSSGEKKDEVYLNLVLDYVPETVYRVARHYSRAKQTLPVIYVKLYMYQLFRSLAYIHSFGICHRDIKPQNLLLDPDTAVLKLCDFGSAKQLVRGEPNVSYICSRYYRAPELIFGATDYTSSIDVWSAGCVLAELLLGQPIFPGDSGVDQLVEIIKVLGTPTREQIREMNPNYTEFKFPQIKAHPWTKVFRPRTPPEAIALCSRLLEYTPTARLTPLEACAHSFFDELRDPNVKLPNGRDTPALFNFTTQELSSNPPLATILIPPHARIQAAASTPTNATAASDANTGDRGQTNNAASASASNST
- experiment.description: radiometric filter-binding kinase assay, Kinase HotSpot
- measurement.context: compound 0.5 µM; ATP 10 µM
Assign residual activity to each entry below.
# output: number + unit

In the examples that follow, each entry is paired with its recorded residual activity.
CCCCc1c(-c2ccc(OC)cc2)[nH]c2nccnc12: 70.2%
Cc1cccc(-c2nc(C(C)(C)C)[nH]c2-c2ccc3c(c2)OCO3)n1: 96.8%
COc1cc2ncnc(Nc3ccc(Oc4ccccc4)cc3)c2cc1OC: 109%
CS(=O)(=O)CCNCc1ccc(-c2ccc3ncnc(Nc4ccc(OCc5cccc(F)c5)c(Cl)c4)c3c2)o1: 103%

Answer for every listed entry: what is its residual activity? The entries follow.
1. N#C/C(=C\c1ccc(O)c(O)c1)C(=O)NCc1ccccc1
2. COc1ccc2c(c1)c(C1=C(c3c[nH]c4ccccc34)C(=O)NC1=O)cn2CCCN(C)C

[out]
106%
32%

====

- tested.system: CAMK2B (human) (UniProt Q13554)
- Sequence (Q13554 whole entry, looked up): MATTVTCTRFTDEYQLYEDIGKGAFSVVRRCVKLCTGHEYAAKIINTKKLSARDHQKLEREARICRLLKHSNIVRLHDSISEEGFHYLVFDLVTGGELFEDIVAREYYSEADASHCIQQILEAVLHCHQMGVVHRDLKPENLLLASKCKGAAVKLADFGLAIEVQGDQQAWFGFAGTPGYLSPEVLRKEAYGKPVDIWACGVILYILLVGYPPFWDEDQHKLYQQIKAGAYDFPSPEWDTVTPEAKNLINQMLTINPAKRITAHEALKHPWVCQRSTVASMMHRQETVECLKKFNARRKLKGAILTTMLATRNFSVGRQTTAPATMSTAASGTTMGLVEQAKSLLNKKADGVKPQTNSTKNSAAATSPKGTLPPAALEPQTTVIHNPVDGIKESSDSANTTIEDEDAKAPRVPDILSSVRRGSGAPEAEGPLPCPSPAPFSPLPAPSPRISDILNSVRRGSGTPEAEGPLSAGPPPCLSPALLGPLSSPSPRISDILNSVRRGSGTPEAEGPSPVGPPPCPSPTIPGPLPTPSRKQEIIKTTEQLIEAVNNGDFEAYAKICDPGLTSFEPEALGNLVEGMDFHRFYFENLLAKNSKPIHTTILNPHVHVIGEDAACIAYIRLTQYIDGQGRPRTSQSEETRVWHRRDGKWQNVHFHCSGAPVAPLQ
- experiment.description: radiometric filter-binding kinase assay, Kinase HotSpot
- measurement.context: compound 0.5 µM; ATP 10 µM
Rule: residual activity below 90% gives MET. Equal to or above 90% gives NOT MET.

CN(C)S(=O)(=O)c1ccc2c(c1)/C(=C/c1cc3c([nH]1)CCCC3)C(=O)N2: MET
N#C/C(=C\c1ccc(O)c(O)c1)C(=O)NCc1ccccc1: NOT MET
O=C(c1cc2cc(O)ccc2[nH]1)c1cc2cc(O)ccc2[nH]1: NOT MET
CN(C)c1ccc(/C=C2\C(=O)Nc3ccccc32)cc1: NOT MET
O=C1Nc2ccc(Br)cc2/C1=C\c1cc2c([nH]1)CCCC2: MET

[in] residual activity under 90%? Item: `O=C1c2ccccc2-c2nc3nnnn3nc21`
[out] MET

[in] Would you kindly verify if residual activity of `NC(=O)c1cccc(-c2cc(Nc3ccc(OC(F)(F)F)cc3)ncn2)c1` is strictly less than 90%?
[out] NOT MET

====

Give measured residual activity for each item. Keep answers brief.
- tested.system: DMPK (human) (UniProt Q09013)
- Sequence (Q09013 whole entry, looked up): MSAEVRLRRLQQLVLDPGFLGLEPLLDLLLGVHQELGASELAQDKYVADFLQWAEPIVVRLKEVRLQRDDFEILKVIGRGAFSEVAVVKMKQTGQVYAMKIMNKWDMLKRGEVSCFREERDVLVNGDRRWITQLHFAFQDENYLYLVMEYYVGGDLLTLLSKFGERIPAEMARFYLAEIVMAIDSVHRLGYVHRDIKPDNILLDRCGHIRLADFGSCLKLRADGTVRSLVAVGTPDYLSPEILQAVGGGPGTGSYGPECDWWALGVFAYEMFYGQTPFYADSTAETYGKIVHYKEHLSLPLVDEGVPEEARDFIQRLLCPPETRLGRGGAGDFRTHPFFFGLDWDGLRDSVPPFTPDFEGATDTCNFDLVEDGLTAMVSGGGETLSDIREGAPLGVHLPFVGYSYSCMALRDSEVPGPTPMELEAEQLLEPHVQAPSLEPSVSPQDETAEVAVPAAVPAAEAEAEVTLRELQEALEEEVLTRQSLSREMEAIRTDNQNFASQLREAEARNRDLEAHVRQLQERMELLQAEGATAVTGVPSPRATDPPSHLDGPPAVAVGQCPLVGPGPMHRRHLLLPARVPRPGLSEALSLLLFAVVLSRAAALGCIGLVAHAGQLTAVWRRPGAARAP
- experiment.description: radiometric filter-binding kinase assay, Kinase HotSpot
- measurement.context: compound 0.5 µM; ATP 10 µM
Answers are plain numbers, in %.

Reference set, count: 2
C[C@@H]1CCN(C(=O)CC#N)C[C@@H]1N(C)c1ncnc2[nH]ccc12: 108
COc1ccc(Cl)cc1NC(=O)Nc1cc(C)nc2ccccc12: 103

# return residual activity for each item in the list
1. COc1cc2ncnc(Nc3ccc(OCc4ccccc4)cc3)c2cc1OC
2. N#Cc1c[nH]c2c[nH]/c(=N\Cc3cccnc3)cc2/c1=N\c1ccc(F)c(Cl)c1
3. Fc1ccc(-c2nc3n(c2-c2ccncc2)CCS3)cc1
4. c1ccc2c(-c3ccncc3)c[nH]c2c1
5. COc1ccc(C(=O)Nc2sc3c(c2C(N)=O)CCCC3)cc1OC

[out]
104
104
102
109
108

For each of the molecules below, state residual activity.
1. CC(C)(C)c1cc(C=C(C#N)C#N)cc(Br)c1O
2. O=C(c1cc2cc(O)ccc2[nH]1)c1cc2cc(O)ccc2[nH]1
3. CN(C)CCCn1cc(C2=C(c3c[nH]c4ccccc34)C(=O)NC2=O)c2ccccc21
4. CN(C)c1ccc(/C=C2\C(=O)Nc3ccccc32)cc1

[out]
96.9
96.9
94.7
105

List reported residual activity for each of these molecules:
1. O=C1Nc2ccc(Br)cc2/C1=C\c1cc2c([nH]1)CCCC2
2. Cn1c2ccccc2c2c3c(c4c5ccccc5n(CCC#N)c4c21)CNC3=O
3. COc1ccc2c(c1)/C(=C/c1cnc[nH]1)C(O)=N2
4. O=C1NC(=O)c2c1c1c3ccccc3[nH]c1n1cncc21
5. COc1ccc2c(c1)c(C1=C(c3c[nH]c4ccccc34)C(=O)NC1=O)cn2CCCN(C)C
6. CCCCc1c(-c2ccc(OC)cc2)[nH]c2nccnc12

[out]
1. 101
2. 101
3. 104
4. 101
5. 97.7
6. 84.3

====

- tested.system: BLK (human)
- experiment.description: radiometric filter-binding kinase assay, Kinase HotSpot
- measurement.context: compound 0.5 µM; ATP 10 µM
readout.label: residual activity

CN(C)CCCn1cc(C2=C(c3c[nH]c4ccccc34)C(=O)NC2=O)c2ccccc21: 87%

Below are 5 compounds. Give each one its residual activity.
1. O=C1Nc2ccc(Br)cc2/C1=C\c1cc2c([nH]1)CCCC2
2. COc1ccc(S(=O)(=O)N(CCO)c2ccccc2CN(C)C/C=C/c2ccc(Cl)cc2)cc1
3. COc1ccc2c(c1)c(C1=C(c3c[nH]c4ccccc34)C(=O)NC1=O)cn2CCCN(C)C
4. Cc1cccc(-c2nc(C(C)(C)C)[nH]c2-c2ccc3c(c2)OCO3)n1
5. COc1cc2ncnc(Nc3ccc(Oc4ccccc4)cc3)c2cc1OC

[out]
74.4%
103%
78.8%
98.5%
9.95%

List residual activity for every entry below, keeping the order given.
1. c1ccc2c(-c3ccncc3)c[nH]c2c1
2. COc1ccc2c(c1)/C(=C/c1cnc[nH]1)C(O)=N2

[out]
99.6%
90.3%

Each compound below has a reported value. Please supply its residual activity.
1. O=C1c2ccccc2-c2nc3nnnn3nc21
2. Ic1cccc(CSc2nnc(-c3ccncc3)o2)c1
3. CC(C)(C)c1cc(C=C(C#N)C#N)cc(Br)c1O
4. Fc1ccc(-c2nc3n(c2-c2ccncc2)CCS3)cc1
5. O=C1NC(=O)c2c1c1c3ccccc3[nH]c1n1cncc21
6. N#Cc1c[nH]c2c[nH]/c(=N\Cc3cccnc3)cc2/c1=N\c1ccc(F)c(Cl)c1

[out]
109%
103%
97.9%
97.8%
73.9%
99.9%

Each of the following entries comes with a recorded value; kindly state residual activity for each.
1. O=C(c1cc2cc(O)ccc2[nH]1)c1cc2cc(O)ccc2[nH]1
2. NC(=O)c1cccc(-c2cc(Nc3ccc(OC(F)(F)F)cc3)ncn2)c1
3. Cc1nc(-c2ccccc2)c(-c2ccncc2)o1

[out]
1. 49.7%
2. 103%
3. 95.4%
